# maps each entry to its growth inhibition
# ASSAY NAME: NCI Yeast Anticancer Drug Screen. Data for the bub3 strain (AID 167)
# CONDITION: S. cerevisiae bub3 mutant strain, at 5.0 µM (retest, dose inferred, filed as 0.5), stronger effect = higher value
Compounds without any hit were thinned out: in the full panel of roughly 79,000, 15% have a hit.
State the answer as a number, implicitly in %.

Recorded growth inhibition, per entry:
Q: // lookup growth inhibition for "Clc1cc2c(c3ncccc13)OCN(Cc1ccccc1)C2"
A: -3

Q: // lookup growth inhibition for "Clc1cc2c(c3ncccc13)OCN(CCc1ccccc1)C2"
A: 4

Q: // lookup growth inhibition for "CCCCCCCCCC[N+](C)(C)CCC[N+](C)(C)CCCCCCCCCC"
A: 31

---
Q: // lookup growth inhibition for "c1ccc2c(c1)Cc1c-2nc2ccccc2c1N1CCOCC1"
A: 54

Q: // lookup growth inhibition for "CCCN1CSC(=S)N(CCC)C1"
A: 34

Q: // lookup growth inhibition for "Cn1c2c(c3ccccc31)CCN(CCN1CCN(c3cccc(Cl)c3)CC1)C2=O"
A: -17

Q: // lookup growth inhibition for CCCCCCCCCCCC(=O)NC(CCC(=O)O)C(=O)O (stereo not drawn)
A: -7

Q: // lookup growth inhibition for "c1nc2nc(N3CCOCC3)nc(N3CCCCC3)c2[nH]1"
A: -1

Q: // lookup growth inhibition for "CCOC(=O)c1ccc(O)c(C=O)c1"
A: -49

Q: // lookup growth inhibition for C#CC(CC(C)CC(C)(C)C)NC (stereo not drawn)
A: 2

Q: // lookup growth inhibition for CCOC(=O)C(Cl)C(Cl)C(=O)OCC (stereo not drawn)
A: 22

Q: // lookup growth inhibition for C=CCN1CCC(OC(=O)C(O)(C#CC)C2CCCC2)CC1 (stereo not drawn)
A: 21

Q: // lookup growth inhibition for "CC1=CCCc2c1cc1ccc3cccc4ccc2c1c34"
A: -5

====

# ASSAY NAME: NCI Yeast Anticancer Drug Screen. Data for the sgs1 mgt1 strain (AID 161);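 further: 0% = growth of cultures given vehicle only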
# CONDITION: S. cerevisiae sgs1 mgt1 strain, at 50.0 µM, stronger effect = higher value
Compounds without any hit were thinned out: in the full panel of roughly 79,000, 15% have a hit.
Use fulfilled when the recorded growth inhibition is no lower than 90%; use not fulfilled when it is lower.

Q: Check this compound for growth inhibition at or above 90%: "CN(C)c1ccc(/C=N/c2nc(-c3ccccc3)cs2)cc1"
A: fulfilled

Let's switch to this compound now.
Q: Check this compound for growth inhibition at or above 90%: C=CC1(C)CCC2C(=CCC3C(C)(COC4OC(CO)C(O)C(O)C4O)C(O)CCC23C)C1 (stereo unspecified)
A: fulfilled

====

# ASSAY NAME: NCI Yeast Anticancer Drug Screen. Data for the bub3 strain (AID 167)
# CONDITION: S. cerevisiae bub3 mutant strain, at 50.0 µM, stronger effect = higher value
This is part of a sample that, as a whole, favours compounds with a hit. Of some 79,000 tested, about 15% had one in any assay.
Use 1 when the recorded growth inhibition is no lower than 70%; use -1 when it is lower.

Here are 8 molecules together with their reported answers.
Q: Check this molecule for growth inhibition at or above 70%: "CCN(CC)CCNC(=O)c1ccc2c(c1O)C(=O)c1ccccc1C2=O"
A: -1

Q: Check this molecule for growth inhibition at or above 70%: CN(Cc1cc(Cl)cc(Cl)c1)CC(C(=O)c1ccccc1)c1ccccc1 (configuration not stated)
A: -1

Q: Check this molecule for growth inhibition at or above 70%: "CC(=O)Oc1cc(Cl)ccc1Cc1ccc(Cl)cc1OC(C)=O"
A: 1

Q: Check this molecule for growth inhibition at or above 70%: CC(NNC(=S)N1CCCC1)c1cccnn1 (configuration not stated)
A: 1

Q: Check this molecule for growth inhibition at or above 70%: "CCC(CC)C(=O)O.[Ag]"
A: 1

Q: Check this molecule for growth inhibition at or above 70%: "COc1cc(C)c2sc3ccccc3c(=O)c2c1NCCCN(C)C"
A: -1

Q: Check this molecule for growth inhibition at or above 70%: OC(COc1ccc(Cl)cc1)CN1CCN(c2cccc(Cl)c2)CC1 (configuration not stated)
A: 1

Q: Check this molecule for growth inhibition at or above 70%: "COC(=O)CSc1nc2ccccc2[nH]1"
A: -1

---
Q: Check this molecule for growth inhibition at or above 70%: "N#CC(C#N)=C(C1CC1)C1CC1"
A: -1

Q: Check this molecule for growth inhibition at or above 70%: "COc1cc2c(cc1OC)[C@H]1C(=O)c3cc4c(cc3[C@H]1N(C)C2=O)OCO4"
A: -1

Q: Check this molecule for growth inhibition at or above 70%: "O=c1cc(N=Nc2ccc(Cl)c(Cl)c2)[nH]c(=O)[nH]1"
A: 1

====

# ASSAY NAME: NCI Yeast Anticancer Drug Screen. Data for the bub3 strain (AID 167)
# CONDITION: S. cerevisiae bub3 mutant strain, at 5.0 µM (retest, dose inferred, filed as 0.5), stronger effect = higher value
# Protocol: Growth inhibition of yeast strains with defined genetic alterations is measured as a screen for potential anti-cancer activity. Selected strains with alterations in DNA damage repair or cell cycle control were exposed to compounds and growth inhibition was measured relative to vehicle treated controls. The strain used in this assay is bub3
About 79,000 compounds went through this panel and 15% of them were active in at least one assay; those are over-represented in the sample as a whole.
# maps each entry to its growth inhibition
State the answer as a number, implicitly in %.

Recorded growth inhibition, per entry:
Q: // lookup growth inhibition for "S=C=NCCCCCCN=C=S"
A: 58

Q: // lookup growth inhibition for "Cc1ncc(CO)c(C=NCCCCCCN=Cc2c(CO)cnc(C)c2[O-])c1[O-].[Cu+2]"
A: -3

Q: // lookup growth inhibition for "CCOC(=O)c1c(C)c2c(n1C)CCc1sc(N)nc1-2"
A: 2

Q: // lookup growth inhibition for "CC(=O)N(/C=C\c1sc2ccccc2[n+]1C)c1ccccc1"
A: 27

Q: // lookup growth inhibition for CC12CCC(O)CC1=CCC1C2CCC2(C)c3nc(C#N)c(=N)n(O)c3CC12 (stereo unspecified)
A: 1

---
Q: // lookup growth inhibition for "CNC(=S)N(C)C(=S)Nn1c(=O)c(C)nn(C)c1=S"
A: -18

====

# ASSAY NAME: NCI Yeast Anticancer Drug Screen. Data for the rad50 strain (AID 155);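 further: 0% = growth of vehicle-only cultures of the same strain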
# CONDITION: S. cerevisiae rad50 strain growth inhibition; at 50.0 µM (retest, dose inferred, filed as 5.0)
About 79,000 compounds went through this panel and 15% of them were active in at least one assay; those are over-represented in the sample as a whole. Active and inactive are the calls of the source. Cut-off read from the data, not from the text of the source: active = growth inhibition above about 70%; inactive = the rest.
Valid outcomes are listed here; reply with one: active, inactive

Q: Dear colleague, could you share the recorded outcome for "[Cl][Ge]([c]1ccccc1)[c]1ccccc1.[Cl][Ge]([c]1ccccc1)[c]1ccccc1" when you have a moment?
A: active

Q: Dear colleague, could you share the recorded outcome for "O=C1c2cc([N+](=O)[O-])cc3cc([N+](=O)[O-])cc(c23)C(=O)N1CCNCCN1C(=O)c2cc([N+](=O)[O-])cc3cc([N+](=O)[O-])cc(c23)C1=O" when you have a moment?
A: active

Q: Dear colleague, could you share the recorded outcome for "CCOC(=O)c1c[nH]cc1-c1cn(S(=O)(=O)c2ccccc2)cc1C" when you have a moment?
A: inactive

Let's switch to this molecule now.
Q: Dear colleague, could you share the recorded outcome for O=C(c1ccccc1)C(c1ccccc1)C1(O)C(=O)Nc2c(Cl)cc(Cl)cc21 (centres undefined) when you have a moment?
A: inactive

====

# ASSAY NAME: NCI Yeast Anticancer Drug Screen. Data for the rad50 strain (AID 155);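 further: 0% = growth of vehicle-only cultures of the same strain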
# CONDITION: S. cerevisiae rad50 strain growth inhibition; at 50.0 µM; stronger effect = higher value
About 79,000 compounds went through this panel and 15% of them were active in at least one assay; those are over-represented in the sample as a whole.
PROPERTY MEASURED: growth inhibition (%)
State the answer as a number, implicitly in %.

Recorded growth inhibition, per entry:
Q: // lookup growth inhibition for "Cc1ccc2cccc(N)c2c1"
A: -12.4

Q: // lookup growth inhibition for "CCCCCCCCC(=O)NCCCNCCCNC(=O)CCCCCCCC"
A: 69

Q: // lookup growth inhibition for "O=C1C=CC(=O)N1Cc1ccccc1"
A: 99.3

Q: // lookup growth inhibition for CSc1nc(N)c2cnn(C3OC(CO)C(O)C3O)c2n1 (stereo not given)
A: 9.55

Q: // lookup growth inhibition for "CCCCCCCOc1ccc(C=O)cc1OC"
A: 7.3

Q: // lookup growth inhibition for "O=[N+]([O-])c1ccc(/C=N\OCc2cscn2)cc1"
A: 76.7

---
Q: // lookup growth inhibition for CC(=O)CCC(Br)(CCC(Br)(CCC(C)=O)[N+](=O)[O-])[N+](=O)[O-] (stereo not given)
A: 95.2

Q: // lookup growth inhibition for "C#Cc1cccc(N=Cc2cc(Cl)cc(Cl)c2O)c1"
A: 94.6

Q: // lookup growth inhibition for "CC(C)c1ncc(-c2ccccc2)cc1-c1ccccc1"
A: 95.7
